Entries and their self-cleavage
B1: HDV Ribozyme (parent)
chain: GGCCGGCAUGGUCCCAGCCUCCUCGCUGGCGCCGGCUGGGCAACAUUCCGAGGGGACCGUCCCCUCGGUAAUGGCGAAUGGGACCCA

variants of: B1; assay: self-cleavage, relative activity (ratio to wild type); higher = more cleavage; co-transcriptional
The reply should be a number, written without any unit.

Consider the reported self-cleavage for these variants:
>  <change>
C13U G28U

>  <measurement.type>
self-cleavage

>  <result.value>
0.0615

$$$$
>  <change>
G17A C22U

>  <measurement.type>
self-cleavage

>  <result.value>
0.194

$$$$
>  <change>
G1A G39A

>  <measurement.type>
self-cleavage

>  <result.value>
0.141

$$$$
>  <change>
G29C G54C

>  <measurement.type>
self-cleavage

>  <result.value>
0.0692

$$$$
>  <change>
G50A G68A

>  <measurement.type>
self-cleavage

>  <result.value>
0.957

$$$$
>  <change>
C49U G52U

>  <measurement.type>
self-cleavage

>  <result.value>
0.687

$$$$
>  <change>
A45U A87G

>  <measurement.type>
self-cleavage

>  <result.value>
0.737

$$$$
>  <change>
C75G G82A

>  <measurement.type>
self-cleavage

>  <result.value>
0.208

$$$$

# self-cleavage lookup, item G34A U37C 0.102

Could you do the same for C22A G50A , please? 0.235

Now this one: C63A A77G 0.734

Also need C4G G28C , thanks. 0.101

For G68U C84A then? 0.816

What about this variant? G68C U72G 0.356

Would you mind doing G2C U23C as well? 0

// repeat for G50A C86A and report 0.931

Next record, please: C24G C62A 0.0272

Then `C15U` ? 0.965

# iterate: G38A A43G 0.155

Same read-out for C4A C86G ? 0.405

And for C24G C86U ? 0.17

Item: C24U G67C 0.78
